PROTOCOL SUMMARY: Intranasal PK in rats: plasma methylphenidate released from conjugates vs unconjugated methylphenidate
Format: in vivo
CONDITION LABEL: rat, inhaled or intranasal, unconjugated methylphenidate comparator, dosed intranasally
READOUT TYPE: Cmax (ng/mL)

COMPOUND	UNIT INFO	NUMERIC VALUE
COC(=O)C(c1ccccc1)C1CCCCN1 (stereo not shown) [Methylphenidate, methyl phenyl(piperidin-2-yl)acetate]	ng/mL	2210

====

PROTOCOL SUMMARY: Oral PK in rats: plasma methylphenidate released from conjugates vs unconjugated methylphenidate (LC-MS/MS)
CONDITION LABEL: plasma methylphenidate released from conjugate, oral gavage, equivalent to 2 mg/kg methylphenidate free base
READOUT TYPE: Cmax (Conjugate) (ng/mL)

MOLECULE	READOUT TYPE	NUMERIC VALUE
COC(=O)C(c1ccccc1)C1CCCCN1C(=O)OCOP(=O)(O)O (stereo not shown) [Phosphate-CH2OCO-MPH, phosphate-CH2OCO-MPH]	Cmax (Conjugate)	110.8
COC(=O)C(c1ccccc1)C1CCCCN1C(=O)OCOC(=O)C(C)O (stereo not shown) [Lactate-CH2OCO-MPH, lactate-CH2OCO-MPH]	Cmax (Conjugate)	122.5
COC(=O)C(c1ccccc1)C1CCCCN1C(=O)OCOC(=O)CCCCCN (stereo not shown) [6-Aminohexanoate-CH2OCO-MPH]	Cmax (Conjugate)	173.5
COC(=O)C(c1ccccc1)C1CCCCN1C(=O)OCOC(=O)CCCCCNC(=O)C(N)C(C)C (stereo not shown) [Val-6-aminohexanoate-CH2OCO-MPH]	Cmax (Conjugate)	52.7

====

PROTOCOL SUMMARY: Oral PK in rats: plasma methylphenidate released from conjugates vs unconjugated methylphenidate (LC-MS/MS)
CONDITION LABEL: conjugate relative to unconjugated methylphenidate, oral gavage
Recorded Tmax-% values for a group of compounds are listed next.

COMPOUND	Tmax-% / %
COC(=O)C(c1ccccc1)C1CCCCN1C(=O)OCOC(=O)CCCCCNC(=O)C(N)C(C)C (stereo not shown) [Val-6-aminohexanoate-CH2OCO-MPH]	83
COC(=O)C(c1ccccc1)C1CCCCN1C(=O)OCOP(=O)(O)O (stereo not shown) [Phosphate-CH2OCO-MPH, phosphate-CH2OCO-MPH]	100
COC(=O)C(c1ccccc1)C1CCCCN1C(=O)OCOC(=O)CCCCCN (stereo not shown) [6-Aminohexanoate-CH2OCO-MPH]	88
COC(=O)C(c1ccccc1)C1CCCCN1C(=O)OCOC(=O)C(C)O (stereo not shown) [Lactate-CH2OCO-MPH, lactate-CH2OCO-MPH]	120

====

PROTOCOL SUMMARY: Oral PK in rats: plasma methylphenidate released from conjugates vs unconjugated methylphenidate (LC-MS/MS)
CONDITION LABEL: conjugate relative to unconjugated methylphenidate, oral gavage
A collection of compounds and their measured Cmax-%

COMPOUND	UNIT INFO	Cmax-%
COC(=O)C(c1ccccc1)C1CCCCN1C(=O)OCOC(=O)C(C)O (stereo not shown) [Lactate-CH2OCO-MPH, lactate-CH2OCO-MPH]	%	75
COC(=O)C(c1ccccc1)C1CCCCN1C(=O)OCOC(=O)CCCCCNC(=O)C(N)C(C)C (stereo not shown) [Val-6-aminohexanoate-CH2OCO-MPH]	%	59
COC(=O)C(c1ccccc1)C1CCCCN1C(=O)OCOC(=O)CCCCCN (stereo not shown) [6-Aminohexanoate-CH2OCO-MPH]	%	109
COC(=O)C(c1ccccc1)C1CCCCN1C(=O)OCOP(=O)(O)O (stereo not shown) [Phosphate-CH2OCO-MPH, phosphate-CH2OCO-MPH]	%	144

====

Here the recorded AUC0-4 h (Conjugate) is given for each entry.
PROTOCOL SUMMARY: Oral PK in rats: plasma methylphenidate released from conjugates vs unconjugated methylphenidate (LC-MS/MS)
CONDITION LABEL: plasma methylphenidate released from conjugate, oral gavage, equivalent to 2 mg/kg methylphenidate free base

MOLECULE	UNIT INFO	AUC0-4 h (Conjugate)
COC(=O)C(c1ccccc1)C1CCCCN1C(=O)OCOC(=O)CCCCCNC(=O)C(N)C(C)C (stereo not shown) [Val-6-aminohexanoate-CH2OCO-MPH]	ng·h/mL	44.9
COC(=O)C(c1ccccc1)C1CCCCN1C(=O)OCOC(=O)C(C)O (stereo not shown) [Lactate-CH2OCO-MPH, lactate-CH2OCO-MPH]	ng·h/mL	132.3
COC(=O)C(c1ccccc1)C1CCCCN1C(=O)OCOC(=O)CCCCCN (stereo not shown) [6-Aminohexanoate-CH2OCO-MPH]	ng·h/mL	145.6
COC(=O)C(c1ccccc1)C1CCCCN1C(=O)OCOP(=O)(O)O (stereo not shown) [Phosphate-CH2OCO-MPH, phosphate-CH2OCO-MPH]	ng·h/mL	110.8

====

PROTOCOL SUMMARY: Oral PK in rats: plasma methylphenidate released from conjugates vs unconjugated methylphenidate (LC-MS/MS)
CONDITION LABEL: rat, plasma, po, 2 mg/kg, Tmax (Methylphenidate), unconjugated methylphenidate hydrochloride comparator of the same row, oral gavage, equimolar

MOLECULE	UNIT INFO	Tmax
COC(=O)C(c1ccccc1)C1CCCCN1 (stereo not shown) [Methylphenidate, methyl phenyl(piperidin-2-yl)acetate]	min	15

====

Listed below: AUC-% values for each entry.
PROTOCOL SUMMARY: Oral PK in rats: plasma methylphenidate released from conjugates vs unconjugated methylphenidate (LC-MS/MS)
CONDITION LABEL: conjugate relative to unconjugated methylphenidate, oral gavage

COMPOUND	AUC-%, %
COC(=O)C(c1ccccc1)C1CCCCN1C(=O)OCOC(=O)C(C)O (stereo not shown) [Lactate-CH2OCO-MPH, lactate-CH2OCO-MPH]	73
COC(=O)C(c1ccccc1)C1CCCCN1C(=O)OCOC(=O)CCCCCNC(=O)C(N)C(C)C (stereo not shown) [Val-6-aminohexanoate-CH2OCO-MPH]	58
COC(=O)C(c1ccccc1)C1CCCCN1C(=O)OCOP(=O)(O)O (stereo not shown) [Phosphate-CH2OCO-MPH, phosphate-CH2OCO-MPH]	185
COC(=O)C(c1ccccc1)C1CCCCN1C(=O)OCOC(=O)CCCCCN (stereo not shown) [6-Aminohexanoate-CH2OCO-MPH]	82

====

PROTOCOL SUMMARY: Oral PK in rats: plasma methylphenidate released from conjugates vs unconjugated methylphenidate (LC-MS/MS)
CONDITION LABEL: rat, plasma, po, 2 mg/kg, Tmax (Methylphenidate), methylphenidate hydrochloride, oral gavage, combined data of six studies (footnotes a, b)
READOUT TYPE: Tmax

COMPOUND	RESULT
COC(=O)C(c1ccccc1)C1CCCCN1 (stereo not shown) [Methylphenidate, methyl phenyl(piperidin-2-yl)acetate]	17 min

====

PROTOCOL SUMMARY: Intravenous PK in rats: plasma methylphenidate released from conjugates vs unconjugated methylphenidate
Assay type: in vivo
CONDITION LABEL: rat, unconjugated methylphenidate comparator, dosed intravenously
Excerpt: FIGS. 14 and 15—water. […] FIG. 17—50% PEG-400 in water. FIG. 18—10% Tween in water. FIGS. 19-27—water. FIGS. 28 and 29—phosphate buffered saline (PBS). FIG. 30—10% Tween in water.

COMPOUND	Tmax [min]
COC(=O)C(c1ccccc1)C1CCCCN1 (stereo not shown) [Methylphenidate, methyl phenyl(piperidin-2-yl)acetate]	31

====

PROTOCOL SUMMARY: Intranasal PK in rats: plasma methylphenidate released from conjugates vs unconjugated methylphenidate
Type: in vivo
CONDITION LABEL: rat, inhaled or intranasal, unconjugated methylphenidate comparator, dosed intranasally, read-out: AUC0-4 h (Methylphenidate)

COMPOUND	AUC(0-t) [ng·h/mL]
COC(=O)C(c1ccccc1)C1CCCCN1 (stereo not shown) [Methylphenidate, methyl phenyl(piperidin-2-yl)acetate]	1050

====

PROTOCOL SUMMARY: Oral PK in rats: plasma methylphenidate released from conjugates vs unconjugated methylphenidate (LC-MS/MS)
CONDITION LABEL: rat, plasma, po, 2 mg/kg, Cmax (Methylphenidate), methylphenidate hydrochloride, oral gavage, combined data of six studies (footnotes a, b)
READOUT TYPE: Cmax (ng/mL)

COMPOUND	NUMERIC VALUE
COC(=O)C(c1ccccc1)C1CCCCN1 (stereo not shown) [Methylphenidate, methyl phenyl(piperidin-2-yl)acetate]	114

====

PROTOCOL SUMMARY: Oral PK in rats: plasma methylphenidate released from conjugates vs unconjugated methylphenidate (LC-MS/MS)
CONDITION LABEL: plasma methylphenidate released from conjugate, oral gavage, equivalent to 2 mg/kg methylphenidate free base
Quick list: Tmax (Conjugate) per entry.
READOUT TYPE: Tmax (Conjugate) (min)

COMPOUND	READOUT TYPE	NUMERIC VALUE
COC(=O)C(c1ccccc1)C1CCCCN1C(=O)OCOC(=O)CCCCCNC(=O)C(N)C(C)C (stereo not shown) [Val-6-aminohexanoate-CH2OCO-MPH]	Tmax (Conjugate)	15
COC(=O)C(c1ccccc1)C1CCCCN1C(=O)OCOP(=O)(O)O (stereo not shown) [Phosphate-CH2OCO-MPH, phosphate-CH2OCO-MPH]	Tmax (Conjugate)	15
COC(=O)C(c1ccccc1)C1CCCCN1C(=O)OCOC(=O)C(C)O (stereo not shown) [Lactate-CH2OCO-MPH, lactate-CH2OCO-MPH]	Tmax (Conjugate)	18
COC(=O)C(c1ccccc1)C1CCCCN1C(=O)OCOC(=O)CCCCCN (stereo not shown) [6-Aminohexanoate-CH2OCO-MPH]	Tmax (Conjugate)	21
